pKi: −log10 of the molar value.
This document collects pKi values reported for Mu-type opioid receptor (Mus musculus).
PROPERTY MEASURED: pKi

[[record]]
compound_structure_string = "CC(=O)Nc1c[nH]c2c(C(=O)N[C@@H]3CC[C@@]4(O)[C@H]5Cc6ccc(O)c7c6[C@@]4(CCN5CC4CC4)[C@H]3O7)cccc12"
readout_number = 9.57

[[record]]
compound_structure_string = "O=C(N[C@@H]1CC[C@@]2(O)[C@H]3Cc4ccc(O)c5c4[C@@]2(CCN3CC2CC2)[C@H]1O5)c1cccc2c(C3CCCC3)c[nH]c12"
readout_number = 8.84

[[record]]
compound_structure_string = "O=C(N[C@@H]1CC[C@@]2(O)[C@H]3Cc4ccc(O)c5c4[C@@]2(CCN3CC2CC2)[C@H]1O5)c1cccc2cc(-c3ccccc3)[nH]c12"
readout_number = 8.49

